Below, each entry is listed alongside its reported inhibition.
Biological target: Tyrosine-protein kinase JAK2 (Homo sapiens) (UniProt O60674);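 also: mean JAK2 inhibition from the GSK PKIS screen, compounds tested at 1 µM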
Sequence (O60674 whole entry): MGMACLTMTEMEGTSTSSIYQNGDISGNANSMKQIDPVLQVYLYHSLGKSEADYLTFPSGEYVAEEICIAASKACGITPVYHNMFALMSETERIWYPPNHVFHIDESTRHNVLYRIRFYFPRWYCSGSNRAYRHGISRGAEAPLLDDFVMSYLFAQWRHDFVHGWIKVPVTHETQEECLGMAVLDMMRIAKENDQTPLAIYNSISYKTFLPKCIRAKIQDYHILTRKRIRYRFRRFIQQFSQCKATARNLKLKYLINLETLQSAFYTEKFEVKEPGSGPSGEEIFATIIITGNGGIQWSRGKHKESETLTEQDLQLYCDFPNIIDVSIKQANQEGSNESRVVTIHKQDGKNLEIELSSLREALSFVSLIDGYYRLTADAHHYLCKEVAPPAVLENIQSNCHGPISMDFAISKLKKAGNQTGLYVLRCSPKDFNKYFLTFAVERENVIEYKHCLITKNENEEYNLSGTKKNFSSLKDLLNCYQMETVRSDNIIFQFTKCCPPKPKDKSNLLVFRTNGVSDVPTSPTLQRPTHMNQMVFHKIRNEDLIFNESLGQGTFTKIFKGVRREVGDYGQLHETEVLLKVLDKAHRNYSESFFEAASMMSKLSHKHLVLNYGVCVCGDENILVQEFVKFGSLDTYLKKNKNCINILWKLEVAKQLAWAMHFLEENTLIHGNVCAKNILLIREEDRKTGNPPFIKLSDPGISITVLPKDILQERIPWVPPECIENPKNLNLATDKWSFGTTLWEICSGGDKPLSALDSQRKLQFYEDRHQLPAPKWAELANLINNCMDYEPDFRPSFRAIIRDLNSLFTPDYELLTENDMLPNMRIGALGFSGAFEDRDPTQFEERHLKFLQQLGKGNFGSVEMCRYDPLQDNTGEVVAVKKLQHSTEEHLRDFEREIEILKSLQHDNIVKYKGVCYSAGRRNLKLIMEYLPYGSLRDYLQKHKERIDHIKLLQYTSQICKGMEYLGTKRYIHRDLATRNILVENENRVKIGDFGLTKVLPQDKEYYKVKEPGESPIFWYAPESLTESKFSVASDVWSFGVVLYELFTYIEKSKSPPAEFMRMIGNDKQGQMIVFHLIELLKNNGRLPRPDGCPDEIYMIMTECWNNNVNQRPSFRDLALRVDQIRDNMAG
Conditions: at 1 µM
Please reply with the bare figure in % and do not write the unit itself.

Write down measured inhibition (Tyrosine-protein kinase JAK2 (Homo sapiens) (UniProt O60674)) for this compound. NS(=O)(=O)c1ccc(N/N=C2\C(=O)Nc3ccc(C(=O)NCCCn4ccnc4)cc32)cc1
4.95

New cases:
Write down measured inhibition (Tyrosine-protein kinase JAK2 (Homo sapiens) (UniProt O60674)) for this compound. CNC(=O)c1cncc(/C=C/c2c(C)cccc2C)c1
2.41

Write down measured inhibition (Tyrosine-protein kinase JAK2 (Homo sapiens) (UniProt O60674)) for this compound. NC(=O)c1cc(-c2ccncc2)cc(-c2ccccc2)c1N
1.86

Write down measured inhibition (Tyrosine-protein kinase JAK2 (Homo sapiens) (UniProt O60674)) for this compound. Fc1ccc(-c2ncn(CCCN3CCOCC3)c2-c2ccncc2)cc1
0.65

###

Target: Ribosomal protein S6 kinase alpha-1 (Homo sapiens) (UniProt Q15418);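 also: values are mean percent inhibition of RSK1 measured in the GSK PKIS kinase inhibitor set screen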
Sequence (Q15418 whole entry): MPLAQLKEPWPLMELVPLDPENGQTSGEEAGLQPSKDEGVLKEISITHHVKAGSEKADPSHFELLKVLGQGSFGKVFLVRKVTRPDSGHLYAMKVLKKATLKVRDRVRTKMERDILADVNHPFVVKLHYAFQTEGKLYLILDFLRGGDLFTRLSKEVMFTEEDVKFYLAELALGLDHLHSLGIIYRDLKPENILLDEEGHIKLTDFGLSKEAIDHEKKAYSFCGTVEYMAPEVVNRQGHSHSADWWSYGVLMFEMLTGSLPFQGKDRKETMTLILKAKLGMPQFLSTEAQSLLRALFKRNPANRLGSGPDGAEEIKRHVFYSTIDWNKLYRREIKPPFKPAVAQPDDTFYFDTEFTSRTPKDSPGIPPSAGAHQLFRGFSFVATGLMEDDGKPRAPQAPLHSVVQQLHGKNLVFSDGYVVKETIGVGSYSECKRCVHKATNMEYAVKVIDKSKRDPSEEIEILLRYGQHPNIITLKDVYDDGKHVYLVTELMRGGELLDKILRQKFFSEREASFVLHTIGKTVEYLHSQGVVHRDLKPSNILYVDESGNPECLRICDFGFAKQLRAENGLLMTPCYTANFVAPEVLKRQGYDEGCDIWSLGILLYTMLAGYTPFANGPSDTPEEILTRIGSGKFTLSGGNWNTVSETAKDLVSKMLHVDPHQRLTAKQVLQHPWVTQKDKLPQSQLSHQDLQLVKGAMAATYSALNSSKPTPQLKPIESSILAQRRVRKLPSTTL
Conditions: at 0.1 µM
Record true whenever inhibition is at 2% or higher; record false when lower.

Here's what some known entries look like.
State whether the measured inhibition reaches 2%, counting equality as reaching it, for c1ccc(-c2n[nH]cc2-c2ccnc(-c3ccc(OCCN4CCOCC4)cc3)c2)nc1
false

State whether the measured inhibition reaches 2%, counting equality as reaching it, for CCN(CC)Cc1ccc(Nc2nccc(-c3cnn4ncccc34)n2)cc1
false

State whether the measured inhibition reaches 2%, counting equality as reaching it, for Fc1ccc(-c2ncn(C3CCNCC3)c2-c2ccnc(Oc3ccc4c(c3)OCO4)n2)cc1
false

State whether the measured inhibition reaches 2%, counting equality as reaching it, for CN(c1ccc(NC(=O)Nc2c(Cl)cccc2Cl)cc1)c1ccnc(Nc2cccc(CS(C)(=O)=O)c2)n1
true

State whether the measured inhibition reaches 2%, counting equality as reaching it, for CCc1nccc2c1nc(-c1nonc1N)n2CC
true

New cases:
State whether the measured inhibition reaches 2%, counting equality as reaching it, for NC(=O)c1cc(-c2ccc(F)cc2)cc(-c2ccncc2)c1N
false

State whether the measured inhibition reaches 2%, counting equality as reaching it, for NS(=O)(=O)c1ccc(Nc2cc(-c3ccc(O)c(F)c3)n[nH]2)cc1
true

###

Below, each entry is listed alongside its reported inhibition.
Target: Leucine-rich repeat serine/threonine-protein kinase 2 (Homo sapiens);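 also: reported values are averaged percent inhibition of LRRK2 kinase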
Settings: at 0.1 µM
Please reply with the bare figure in % and do not write the unit itself.

Example results:
State its inhibition for this compound: CS(=O)(=O)CCNCc1ccc(-c2ccc3ncnc(Nc4ccc(OCc5ccccc5)c(Br)c4)c3c2)o1
-4.59

State its inhibition for this compound: COc1cc(C)c(N(C)C(=O)CN(C)C)cc1Nc1nc(Nc2cccc(F)c2C(N)=O)c2cc[nH]c2n1
20.4

State its inhibition for this compound: CS(=O)(=O)CCNCc1cc(-c2cc3c(Nc4ccc(OCc5cccc(F)c5)c(Cl)c4)ncnc3s2)cs1
0.31

New cases:
State its inhibition for this compound: C#Cc1cccc(Nc2ncnc3ccc(OCCCCNCCS(C)(=O)=O)cc23)c1
-4.32

State its inhibition for this compound: CCS(=O)(=O)c1ccc(OC)c(Nc2ncc(-c3ccccc3Cl)o2)c1
2.06

State its inhibition for this compound: c1ccc(Oc2ccc(Nc3ncc(-c4ccccc4)o3)cc2)cc1
1.55

State its inhibition for this compound: O=C(Nc1n[nH]c2nc(-c3ccc(O)cc3)c(Br)cc12)C1CC1
5.19
